Origin of values: patent US20050119301A1

System: rat thoracic aorta
Experiment: Contractile curves to noradrenaline in rat isolated aortic rings (Protocol 1)
Settings: test compound 1 μg/ml; noradrenaline alone minus noradrenaline + compound
Source text: Male Sprague-Dawley rats (250±50 g) were gassed with 80% CO2 and 20% O2 until killed. […] Changes in force were amplified (Quadbridge amplifier, Scientific Concepts Inc., Victoria, Australia) and recorded on a MacLab 8E data acquisition system (Adinstruments Pty Ltd., NSW, Australia) linked to an Apple computer (Apple Computer Inc, Cupertina, Calif.). […]
Reported y max Difference (A − B) values for a set of molecules
experimental.endpoint: y max Difference (A − B)

molecule="Oc1ccc(C2COc3cc(O)ccc3C2O)cc1 (centres unmarked) [Cpd. 7]" test_target="rat thoracic aorta" result="1.38 ± 0.27 g tension"
molecule="O=C1c2ccc(O)cc2OCC1c1ccc(O)cc1 (centres unmarked) [Cpd. 5]" test_target="rat thoracic aorta" result="1.02 ± 0.24 g tension"
molecule="Oc1ccc(C2COc3cc(O)ccc3C2O)cc1 (centres unmarked) [Cpd. 8]" test_target="rat thoracic aorta" result="0.69 ± 0.28 g tension"
molecule="C[C@]12CC[C@@H]3c4ccc(O)cc4CC[C@H]3[C@@H]1CC[C@@H]2O [β-estradiol, 1,3,5[10]-estratriene-3,17β-diol, reference compound]" test_target="rat thoracic aorta" result="2.1 ± 0.31 g tension"
molecule="Oc1ccc(C2=Cc3ccc(O)cc3OC2)cc1 [Cpd. 12]" test_target="rat thoracic aorta" result="2.27 ± 0.68 g tension"
